Reference source: PubChem BioAssay (NCI)

- Test system: MCF7 breast
- METHOD: NCI-60 one-dose screen, 48 h (100 = growth as untreated, 0 = no growth, -100 = all killed)
- MEASUREMENT_CONDITIONS: 10 µM unless noted
About 83,000 compounds went through this panel and 20% of them were active in at least one assay; those are over-represented in the sample as a whole.
growth for assorted compounds
State just the number; it will be interpreted in %.

• C/C=C(\C)C(=O)N[C@H]1C(O)C[C@]2(C)C3CC[C@@]4(C)C(CC[C@@H]4C(C)N(C)C)C3CCC2C1O (some centres undefined) = 28.6

Consider the record given below.
# get_value(readout='growth', item= `CCN(CC)c1ccc(/C=N/NC(=O)Cc2ccc(Nc3ccnc(C(F)(F)F)c3)cc2)c(O)c1` )
20.9

* * *

- System: OVCAR-8 ovarian
- METHOD: NCI-60 one-dose screen, 48 h
- MEASUREMENT_CONDITIONS: 10 µM unless noted
About 83,000 compounds went through this panel and 20% of them were active in at least one assay; those are over-represented in the sample as a whole. Activity calls are given as the source filed them. The calls were made as follows: active = growth percent below 10; inactive = the rest.
One label from this list, please: Y (active), N (inactive)

As a guide, the following entries are already answered.
- CN1CCN(CC(=O)Nc2ccc3ncnc(Nc4ccc(Oc5cccc(C(F)(F)F)c5)c(Cl)c4)c3c2)CC1: N
- COc1ccc(-c2ccc(-c3ccc(C(=N)N)nc3)s2)cc1Cl: Y
- Fc1ccc2[nH]cc(-c3nc(-c4c[nH]c5ccncc45)cs3)c2c1: Y
- CCN1CCN(CCNc2nccc(-c3c(-c4ccc(F)c(OC)c4)nc4sccn34)n2)S1(=O)=O: N

Outcome logged for `CC(=O)OC[C@]12CC[C@@H]([C@@H](C)c3nnc(-c4ccncc4)o3)[C@@H]1[C@H]1CC[C@@H]3[C@@]4(C)CC[C@H](OC(C)=O)C(C)(C)[C@@H]4CC[C@@]3(C)[C@]1(C)CC2` in this assay:
N

Query `COc1ccccc1C(=O)Nc1cccc(NC(=O)c2ccoc2C)c1` next
N

Query `Cn1cc(-c2nn3cc(-c4cccs4)nc3s2)c2cc(F)ccc21` next
N

Query `CN1CCN(CCCOc2cccc3nc(Nc4ccc(F)c(F)c4)ccc23)CC1` next
N

Query `CNCc1cccc2c1OCCOCCOCCNS(=O)(=O)c1ccc(cc1)-c1cnc(N)c(n1)C(=O)N2` next
N

Query `COc1ccc(-c2nc3c(N)c(CO)cnc3s2)cc1` next
N

Query `Cc1ccc2c(=O)cc(C(=O)Nc3sc4c(c3C(=O)NCc3cccnc3)CCCC4)oc2c1C` next
N

Query `CC1=C2[C@@H](CC1)[C@]1(C)O[C@@](C3CCCCC3)(C[C@H]1OC(=O)CO)[C@H]2OC(=O)/C=C/c1ccccc1` next
Y

Query COc1cc2c(c(OC)c1OC)C(=O)CC(c1cccc(NC(=O)c3ccc(C#N)cc3)c1)O2 (stereo not given) next
N

Query CCO/C=N/C1=C(C#N)C(c2ccc(F)cc2)c2sc3c(F)cccc3c2O1 (stereo not given) next
N

Query `O=C(NNC(=O)c1nc2cc(F)ccc2n2cccc12)c1cnccn1` next
N

Query `CC(=O)c1sc2sc(C(C)=O)c(C)c2c1C` next
N

Query Nc1nc(N)c2c(n1)NC(c1cccc(Nc3ccnc4cc(C(F)(F)F)ccc34)c1)CC(c1ccccc1)=N2 (stereo not given) next
N

* * *

- System: SW-620 colon
- METHOD: NCI-60 one-dose screen, 48 h
- MEASUREMENT_CONDITIONS: 10 µM unless noted
About 83,000 compounds went through this panel and 20% of them were active in at least one assay; those are over-represented in the sample as a whole. Activity calls are given as the source filed them. How the source made its calls: active means growth percent below 10; inactive means the rest.
One label from this list, please: active, inactive

• NC(=O)c1cccc([C@@H]2O[C@H](CO)[C@@H](O)[C@H]2O)c1 = inactive
• CCCCNc1cc(-c2cn[nH]c2-c2cc(C)cc(OC)c2)nc(-c2cccnc2)n1 = inactive
• CCOC(=O)c1c(C)nc2c(c1N)/C(=C/c1ccc(OC)cc1)C(=O)N2Cc1ccccc1 = inactive
• Cn1cc(-c2csc(-c3c[nH]c4ccc(F)cc34)n2)c2ccnc(Cl)c21 = inactive
• O=S(=O)(NCCNc1nccc(-c2c(-c3cccc(O)c3)nc3occn23)n1)c1ccc(Br)cc1 = inactive
• COc1ccc(C[n+]2c3ccccc3n3c4ccc(N)cc4ccc32)c(OC)c1OC = inactive

Outcome logged for `CN1CCN(CCOc2ccc(-c3cnc4c(-c5ccc(F)cc5)cnn4c3)cc2)CC1` in this assay:
active

Query `Cc1nnc(-c2ccc3c(c2)nc(/C=C/c2ccccc2)n3C2CCCCC2)o1` next
inactive

Query CNC(C)[C@H]1CCC2C3CC=C4C(=O)[C@@H](NC(=O)C=C(C)C)CC[C@]4(C)C3CC[C@@]21C (stereo partly specified) next
active

* * *

- Tested on: HCT-15 colon
- METHOD: NCI-60 one-dose screen, 48 h (100 = growth as untreated, 0 = no growth, -100 = all killed)
- MEASUREMENT_CONDITIONS: 10 µM unless noted
The panel holds about 83,000 compounds, 20% with a hit somewhere; the sample as a whole holds those more often.
For each record, check the reported growth: if it is below 90% write true (1), else write false (0).

Hello, I'm reviewing records and need to know if growth of `C#CCNC(=O)[C@]1(C)CCC[C@@]2(C)[C@H]1CC=C1C=C(C(C)C)CC[C@@H]12` is below 90%. Could you check?
false (0)

Query `CCOC(=O)c1cc(C(=O)c2cc(OC)c(OC)c(OC)c2)n2ccccc12` next
true (1)

Query `O=C1c2cccc3cccc(c23)C(=O)N1C/C=C/c1ccc2c3c(cccc13)C(=O)N(CCO)C2=O` next
true (1)

Query `CN(C)c1ccc(-c2nc(-c3ccccc3)c(-c3ccccc3)[nH]2)cc1` next
true (1)

Query `NNCCc1ccc(NC(=O)CCCc2ccc(C(=O)Nc3ccccc3N)cc2)cc1` next
false (0)

Query `Cc1nc2c(=O)nc3s/c(=C\c4ccco4)c(=O)n3c2nc1C` next
false (0)

Query `O=C(Cn1nnc2ccccc21)N/N=C/c1c[nH]c2ccccc12` next
true (1)

Query `O=C(CN1CCCCCC1)Nc1nc2ccc(NCc3ccc(Cl)cc3)cc2s1` next
false (0)

Query `O=S(=O)(NCCCNc1nccc(-c2c(-c3cccc(F)c3)nc3occn23)n1)c1ccc(F)cc1` next
true (1)

Query CCN1C(=O)N(CC)C2C1NN=c1s/c(=C3\C(=O)N(CC(C)C)c4ccccc43)c(=O)n12 (configuration not stated) next
true (1)

Query O=C(NC(Cc1nnc2n(Cc3ccccc3)c(=O)c3c4c(sc3n12)CCCC4)c1ccccc1)c1ccccc1 (configuration not stated) next
false (0)

* * *

- Test system: HT29 colon
- METHOD: NCI-60 one-dose screen, 48 h (100 = growth as untreated, 0 = no growth, -100 = all killed)
- MEASUREMENT_CONDITIONS: 10 µM unless noted
This is part of a sample that, as a whole, favours compounds with a hit. Of some 83,000 tested, about 20% had one in any assay. Calls of active or inactive are those of the source. Rule for the calls: active = growth percent below 10; inactive = the rest.
METRIC: growth

Check out these entries, answers already filled in.
- Clc1ccccc1-c1cnn2cc(-c3ccccc3)cnc12: 73.4% (inactive)
- O=C(C1=Cc2cc3ccccc3n2Cc2cnnn21)c1ccc(O)cc1: 27.3% (inactive)
- COc1ccc(/C=C/C(=O)c2ccc(NC(=O)CSc3nc4c([nH]3)c(=O)n(C)c(=O)n4C)cc2)cc1OC: 103% (inactive)

Consider the record given below.
Entry `COc1ccc(C(=O)/C=C/c2ccc(N3CCCCC3)cc2)cc1OC` , system HT29 colon: what growth was measured?
95.1% (inactive)

* * *

- System: DU-145 prostate
- METHOD: NCI-60 one-dose screen, 48 h (100 = growth as untreated, 0 = no growth, -100 = all killed)
- MEASUREMENT_CONDITIONS: 10 µM unless noted
This is part of a sample that, as a whole, favours compounds with a hit. Of some 83,000 tested, about 20% had one in any assay.
growth for assorted compounds
State just the number; it will be interpreted in %.

* O=C(NC1CC(F)C1)c1cc2cccnc2n1-c1ccc(Cl)c(Cl)c1 (stereo unspecified) | 106
* COc1cc(C(=O)n2nc(N3CCOCC3)c3cc(-n4cccc4)ccc32)cc(OC)c1OC | 61.2
* CCOC(=O)c1nn(CC(O)c2ccccc2)c(NC(=O)Nc2cccc(F)c2)c1C (stereo unspecified) | 94.4
* CCCCCCCCCCCCCCCCCC1=NC(C)(C)CN1CC(C)O (stereo unspecified) | 34.5
* O=C(Nc1ncc(Cc2cc(C(F)(F)F)ccc2Cl)s1)c1cccs1 | 72.7

Consider the record given below.
# get_value(readout='growth', item= `Clc1ccccc1-c1cnn2cc(-c3ccccc3)cnc12` )
87.6
